tested on: MOLT-4; test: NCI tumour cell line growth inhibition, 48 h
The source made the active and inactive calls. No stated cut-off is given here; in the data, active = GI50 up to about 1.1 µM and inactive = higher.
One label from this list, please: 1 = active, 0 = inactive

Here's what some known entries look like.
O=Cc1ccccc1OCCOc1cc(OCCOc2ccccc2C=O)c(OCCOc2ccccc2C=O)cc1OCCOc1ccccc1C=O	0
O=C(NC(=O)c1cn(CCN2CCN(C(=O)NCCCCCCNC(=O)N3CCN(CCn4cc(C(=O)NC(=O)OCc5ccccc5)c(=O)[nH]c4=O)CC3)CC2)c(=O)[nH]c1=O)OCc1ccccc1	0
C[n+]1c(-c2ccc(/C=N/NC(=O)C(=O)N/N=C/c3ccc(-c4cn5ccccc5[n+]4C)cc3)cc2)cn2ccccc21	0
O=C(c1cccnc1)N1N=C(c2ccccc2)CC1(O)c1cc(F)c(Cl)cc1Cl (centres undefined)	0
c1csc(-c2ccc(-c3ccc(-c4cccs4)s3)s2)c1	0
CCOC(OC1=CCCC1)C(C)[Se]c1ccccc1 (centres undefined)	0
Cc1ccccc1-c1cc(=O)c2cc(C)c(C)c(C(=O)O)c2o1	0
Cn1c(=O)c2[nH]c(Nc3cccc(Cl)c3)nc2n(C)c1=O	0

Q. Please share the test call associated with CCOC(=O)CN1C(=O)c2cccc3cc([N+](=O)[O-])cc(c23)C1=O .
A. 1

Q. Please share the test call associated with O=c1cc(-c2ccccc2)[nH]c2cc(F)cc(F)c12 .
A. 0

Q. Please share the test call associated with CC(C)[C@@H](C)[C@@]1(C)C[C@@H]1[C@@H](C)[C@H]1CC[C@@H]([C@@H]2CC=C3C[C@@H](O)CC[C@]3(C)C2=O)[C@]1(C)CCO .
A. 0
